These entries and their values trace back to PubChem BioAssay (NCI).

Field: TGI. Provide a value for each of the compounds that follow.
System: OVCAR-3 ovarian
Experiment: NCI tumour cell line growth inhibition, 48 h
Give bare numbers, in µM.

Consider the reported TGI for these compounds:
Compound	Units	Quantitative Result
COc1ccc(-n2sc(=O)n(Cc3ccc(COC(=O)C(C)c4ccc(CC(C)C)cc4)cc3)c2=O)cc1 (centres undefined)	µM	1.52
C/C(=N\Nc1cccc(Cl)n1)c1ccccn1	µM	13.3
CCOC(=O)C(Cc1ccc(OC)cc1)C(=O)OCC	µM	11.6
Oc1[nH]c2ccc(Cl)cc2c1/C=c1/ccc2c(c1)N=C(c1cc(F)cc(F)c1)N=2	µM	5.73

Consider now this further compound.
Known value: OVCAR-3 ovarian TGI of the compound CC1(C)O[C@@H](CP(c2ccccc2)c2ccccc2)[C@H](CP(c2ccccc2)c2ccccc2)O1 equals 33.6

----------
System: HOP-18 NSCLC
Experiment: NCI tumour cell line growth inhibition, 48 h
Reported Endpoint: TGI

Compound	System Under Test	TGI
O=c1[nH]c2c(O)cccc2c2cc3c(c(O)c12)OCO3	HOP-18 NSCLC	0.877 µM
Cc1cc(C)c2[s+]snc2c1	HOP-18 NSCLC	> 100 µM
CC(C)[O-].CC(C)[O-].[O-]c1cccc2cccnc12.[O-]c1cccc2cccnc12.[Ti+4]	HOP-18 NSCLC	> 100 µM
COc1c2ccoc2c(S(=O)(=O)Nc2ccc(Cl)cc2)c2oc(C)cc(=O)c12	HOP-18 NSCLC	> 100 µM

I need TGI for every entry listed below, if you could help.
1. CC1=NN(c2ccccc2)C(=O)C1=C1SCCCS1
2. COc1cc(C2C(Cl)C(=O)N2NC(=O)Cc2ccccc2)ccc1O (stereo unspecified)

["> 100 µM", "> 100 µM"]

----------
Tested on: HCC-2998 colon
Experiment: NCI tumour cell line growth inhibition, 48 h
Provide the reported TGI of each item.

// known answers, use as guide
Compound	System Under Test	TGI
C=C1CO[C@@H]2C[C@@H]1CC/C(C)=C/CC/C(C)=C/CC[C@@]2(C)O	HCC-2998 colon	36.4 µM
CC1=NN(c2ccccc2)C(=O)C1N=Nc1ccc(Br)c(C)c1 (configuration not stated)	HCC-2998 colon	> 100 µM
CSc1ccc(C2=NN(C(=O)c3ccc(N)cc3)C(c3ccc(F)cc3)C2)cc1 (configuration not stated)	HCC-2998 colon	21.8 µM
O=C1CSC(/C=C/c2ccccc2)N1c1ccc(-n2c(-c3ccccc3)nc3ccccc3c2=O)cc1 (configuration not stated)	HCC-2998 colon	> 100 µM
O=C(NC/C(Cl)=C/Cl)Nc1cccc2c1CCCC2	HCC-2998 colon	> 100 µM
CCOC(=O)c1c(C(F)(F)F)oc2c1ccc1nc3nonc3nc12	HCC-2998 colon	47.6 µM
O=C(O)c1cc(N(Cc2ccccc2O)Cc2cc(O)ccc2O)ccc1O	HCC-2998 colon	> 100 µM
CCc1ccccc1-n1c(N)c(C#N)c(-c2ccc(OC)c(OC)c2)c(C#N)c1=O	HCC-2998 colon	> 100 µM
CCCCCC(=O)Cc1cc(OC)cc2c1C(=O)Oc1cc(O)c(C(=O)O)c(CC(=O)CCCCC)c1O2	HCC-2998 colon	> 100 µM
O=C1c2ccccc2C(=O)c2sc(Nc3ccc(Cl)c(Cl)c3)nc21	HCC-2998 colon	29.3 µM

Below are 4 compounds. Give each one its TGI.
1. N#Cc1c(Oc2ccc(F)c(NC(=O)Cc3cccc(C(F)(F)F)c3)c2)ccc2nc(NC(=O)C3CC3)sc12
2. CN(NC(=O)c1cccs1)C1=NCCN1
3. NC(N)=N/N=C/c1ccc(O)c(C(=O)O)c1
4. COC(=O)/C(=N\O)C(C(=O)C=C(C)C)C(=O)C(=O)Nc1ccccc1C (configuration not stated)

["> 100 µM", "> 100 µM", "> 100 µM", "> 100 µM"]
